# protocol: Toxicity liver stage against HepG2, at 10uM
# Type: cell-based
# Parameters: test concentration 10 uM, cell line HepG2-A16-CD81EGFP
# condition info: human, HepG2-A16-CD81EGFP cells; read-out: INHIBITION
The reader will find reported cytotoxicity at 10 µM values listed item by item below.
endpoint: cytotoxicity at 10 µM (%)

molecule: CN(C)CCOCC1CN(Cc2cccc(F)c2)Cc2nccn2C1 (stereo unspecified)
endpoint: cytotoxicity at 10 µM
measured result: -131
//
molecule: Cc1ccc(OCCCC(=O)NC(C)c2ccc(S(N)(=O)=O)cc2)cc1 (stereo unspecified)
endpoint: cytotoxicity at 10 µM
measured result: -2.69
//
molecule: CCC(C)(C)NC(=O)Cn1nc(C)nc1-c1cccc(C)c1
endpoint: cytotoxicity at 10 µM
measured result: -8.44
//
molecule: COc1cc(NCc2ccc(Cl)cc2)c(-c2nn[nH]n2)cc1OC
endpoint: cytotoxicity at 10 µM
measured result: 10.1
//
molecule: CC(=O)N1CCC(N2CCOC(CC3CCCCC3)C2)CC1 (stereo unspecified)
endpoint: cytotoxicity at 10 µM
measured result: 6.46
//
molecule: COCCN1C(=O)CCC12CCN(C(=O)CNC(C)=O)CC2
endpoint: cytotoxicity at 10 µM
measured result: 3.47
